Tested on: six bacteria strains
Assay: MIC, summary statements over the panel of tested bacteria
Assay type: cell-based
Readout kind: antibacterial activity against the tested bacteria (in words)

{"columns": ["Structure notation", "Tgt", "Test result"],
 "data": [
  ["CCCCCCCCN1C(=N)N(CC(=O)Nc2cccc(NC(=O)CN3C[C@H](Cc4ccccc4)N(CCCCCCCC)C3=N)c2)C[C@@H]1Cc1ccccc1", "six bacteria strains", "decreased activity"],
  ["N=C1N(CC(=O)Nc2cccc(NC(N)=O)c2)C[C@H](Cc2ccccc2)N1CCCc1ccccc1", "six bacteria strains", "negligible activity"],
  ["N#CNc1cccc(NC(=O)CN2C[C@H](Cc3ccccc3)N(CCCc3ccccc3)C2=N)c1", "six bacteria strains", "negligible activity"],
  ["CCCCCCCCN1C(=N)N(CC(=O)Nc2ccc(NC(=O)CN3C[C@H](Cc4ccccc4)N(CCCCCCCC)C3=N)cc2)C[C@@H]1Cc1ccccc1", "six bacteria strains", "decreased activity"]
]}
